Assign photoluminescence quantum yield to each entry below.
Measurement Description: photoluminescence quantum yield (fraction); solvent given as SMILES
Condition Description: in C1CCCCC1
Answers are plain numbers.

Consider the reported photoluminescence quantum yield for these molecules:
CN(C)c1ccc(-c2c(/C=C3/C=Cc4ccccc4N3C)c(=O)c2=O)cc1 ... 0.0301
Fc1ccc(-c2cc3ccc4cc(-c5ccc(F)cc5)cc5ccc(c2)c3c45)cc1 ... 0.04
O=[N+]([O-])c1ccc(NCCNCc2c3ccccc3cc3ccccc23)c([N+](=O)[O-])c1 ... 0.0003
CCCC1(CCC)c2cc(-c3ccc4c(c3)C(CCC)(CCC)c3cc(C(C)(C)CC)ccc3-4)ccc2-c2ccc(-c3ccc4c(c3)C(CCC)(CCC)c3cc(C(C)(C)CC)ccc3-4)cc21 ... 0.93
CCCC1(CCC)c2cc(-c3ccc(C(C)(C)C)cc3)ccc2-c2ccc(-c3ccc4c(c3)C(CCC)(CCC)c3cc(-c5ccc6c(c5)C(CCC)(CCC)c5cc(-c7ccc(C(C)(C)C)cc7)ccc5-6)ccc3-4)cc21 ... 0.9
CCCC1(CCC)c2cc(-c3cccc(Cc4ccc(/C=C/c5ccccc5)cc4)c3)ccc2-c2ccc(-c3cccc(Cc4ccc(/C=C/c5ccccc5)cc4)c3)cc21 ... 0.08
Cc1oc2c(Cl)cc3c(C)cc(=O)oc3c2c1C ... 0.0005
Cn1cc(-c2nc3ccccc3nc2/C=C/N2CCCC2)c2ccccc21 ... 0.126
C[Si](C)(C)c1ccc(C#N)c2ccccc12 ... 0.66
COc1ccc(/C=C/c2ccccc2)cc1OC ... 0.06

Please go through the list and note photoluminescence quantum yield for each molecule.
1. COC(=O)c1ccc(C#Cc2ccc(N(C)C)cc2)cc1
2. Cc1cc(C)c(B2c3cc(C(C)(C)C)cc4c5ccccc5c5c6ccccc6c6cc(C(C)(C)C)cc2c6c5c34)c(C)c1
3. CCCCC(CC)CN1C(=O)c2cccc3c(C#Cc4ccc(N(c5ccc(C#Cc6ccc7c8c(cccc68)C(=O)N(CC(CC)CCCC)C7=O)cc5)c5ccc(C#Cc6ccc7c8c(cccc68)C(=O)N(CC(CC)CCCC)C7=O)cc5)cc4)ccc(c23)C1=O (configuration not stated)
4. CCC1=C(C)C2=C(c3c(C)cc(C)nc3-c3cccs3)c3c(C)c(CC)c(C)n3[B-](F)(F)[N+]2=C1C
5. COC(=O)c1ccc(C#Cc2ccccc2)cc1
6. CN(C)c1ccc(-c2cc(=O)c3ccccc3o2)cc1
7. C[Si](C)(c1cccc2ccccc12)[Si](C)(C)[Si](C)(C)[Si](C)(C)c1c2ccccc2cc2ccccc12

[0.351, 0.7, 0.064, 0.53, 0.421, 0.007, 0.65]

* * *

Measurement Description: photoluminescence quantum yield (fraction); solvent given as SMILES
Condition Description: in C1CCCCC1
Measurement Kind: photoluminescence quantum yield
Answers are plain numbers.

B1C=Cc2ccc3ccccc3c2N1 ... 0.61

The following molecules each have a reported value; give each one's photoluminescence quantum yield.
1. O=C(O)c1ccccc1Nc1cccc(C(F)(F)F)c1
2. CC(=O)c1c2c(cc3cc(N(C)C)ccc13)CCC2

[0.016, 0.08]

Look up photoluminescence quantum yield for the entries below, preserving their order.
1. COc1c2ccccc2c(OC)c2c1c1c(F)cccc1n2C
2. CN(C)c1ccc2nc3c(cc2c1)c(-c1ccccc1)nn3-c1ccccc1
3. c1cc2ccc1CCCc1ccc(c3nsnc13)CCC2
4. c1ccc(-c2ccccc2)cc1

0.38
0.84
0.51
0.25

Provide photoluminescence quantum yield for all items below, preserving their order.
1. O=C1NC(=O)/C(=C\c2ccccc2O)S1
2. Cc1ccc(/C=C(\c2ccccc2)c2nc3ccccc3o2)cc1
3. CSC1=C2C=C(c3cc4n(c3)[B-](F)(F)[N+]3=CC=CC3=C4c3c(C)cc(C)cc3C)C(C)=[N+]2[B-](F)(F)n2c(C)ccc21
4. Nc1ccccc1C(=O)O
5. c1cc(-c2ccc3c(c2)CCCO3)ccc1-c1ccc2c(c1)CCCO2

1: 0.02; 2: 0.008; 3: 0.83; 4: 0.29; 5: 0.6

Field: photoluminescence quantum yield. Fill in for each record below.
1. CN1c2ccc(C(=O)c3ccccc3)cc2Sc2cc(C(=O)c3ccccc3)ccc21
2. COc1cccc(OC)c1-c1c2ccccc2c(-c2c(OC)cccc2OC)c2ccccc12
3. CCC1=C(C)C2=C(C)c3cc(I)cn3[B-](F)(F)[N+]2=C1C
4. CCC1=C(C)C2=Cc3cc(I)c(I)n3[B-](F)(F)[N+]2=C1C

1: 0.43; 2: 0.94; 3: 0.13; 4: 0.26

Batch of 3 molecules: report photoluminescence quantum yield for each.
1. CCC1=C(C)C2=C(C)c3c(I)c(I)cn3[B-](F)(F)[N+]2=C1C
2. Nc1ccc2c(c1)Cc1ccccc1-2
3. CC(C)(C)c1ccc(-c2cc3c(-c4ccc(C(C)(C)C)cc4)c4cccc5c(-c6ccc(C(C)(C)C)cc6)cc6c(-c7ccc(C(C)(C)C)cc7)c7cccc2c7c3c6c54)cc1

1. 0.05
2. 0.74
3. 0.23

Lab note: each molecule below needs its photoluminescence quantum yield filled in.
1. CN(C)c1ccc(/C=C/c2nc3ccccc3o2)cc1
2. Nc1cccnc1
3. COc1ccc2c(c1)-c1cc(OC)ccc1C2=O
4. C1=Cc2ccc3ccccc3c2NB1c1ccccc1
5. CCCC1(CCC)c2cc(-c3ccco3)ccc2-c2ccc(-c3ccco3)cc21

[0.005, 0.02, 0.0028, 0.57, 0.86]

* * *

Measurement Description: photoluminescence quantum yield (fraction); solvent given as SMILES
Condition Description: in Cc1ccccc1
Measurement Kind: photoluminescence quantum yield

Below, each entry is followed by its recorded photoluminescence quantum yield result.
c1ccc(-c2nnc(-c3cc(-c4nnc(-c5ccccc5)o4)c(-n4c5ccccc5c5ccccc54)cc3-n3c4ccccc4c4ccccc43)o2)cc1 ... 0.101
CCN(CC)c1ccc(-c2ccc(-c3nc(N4CCOCC4)c4ccccc4n3)s2)cc1 ... 0.67
CC1(C)c2ccccc2N(c2ccc(S(=O)(=O)c3ccc(N4c5ccccc5C(C)(C)c5ccccc54)cc3)cc2)c2ccccc21 ... 0.8

// next entry
Item under review: c1ccc(-n2c(-c3cccc4ccccc34)nc3c4ccccc4c4ccccc4c32)cc1 . Reported photoluminescence quantum yield?
0.79

* * *

Measurement Description: photoluminescence quantum yield (fraction); solvent given as SMILES
Condition Description: in CC#N
Class boundaries, taken from values of photoluminescence quantum yield, are as follows: low (below 0.06), intermediate (0.06 to below 0.2), high (0.2 or more)

For orientation, consider the following solved cases.
COc1ccc(-c2nc3c([nH]2)C2=CC(=O)S[C@]2(C)[C@@]2(C)SC(=O)C=C32)cc1 ... intermediate
CCOC(=O)c1sc2nc(-c3ccccc3)c(C)c(C#N)c2c1N ... low

Which class does c1ccc2c(-c3cc(-c4nccs4)nc(-c4nccs4)c3)c3ccccc3cc2c1 fall in?
intermediate

Please give the result for COc1c2ccccc2c(OC)c2c1c1ccccc1n2C too.
high

Now the same for COC(=O)c1ccc(C#Cc2ccccc2)cc1
high

Also check C#CCN1C(=O)/C(=C/c2cc(OC(C)C)ccc2OC(C)C)N=C1C
intermediate

Follow-up entry: C[n+]1ccc(/C=C/c2cc[n+](C)cc2)cc1
low

Next record, please: CN(C)c1ccc(/C=C/c2nc3c4ccccc4c4ccccc4c3[nH]2)cc1
low

Cool, now Fc1ccc(-c2cc3ccc4cc(-c5ccc(F)cc5)cc5ccc(c2)c3c45)cc1
intermediate

Entry Cc1cc(C)c(C2=C3C=C(/C=C/C(=O)OC(C)(C)C)C=[N+]3[B-](F)(F)n3c2ccc3N2CCOCC2)c(C)c1 please
intermediate

And the next one, CCN1C(=CC=Cc2n(CC)c3cc(Cl)c(Cl)cc3[n+]2CC)N(CC)c2cc(Cl)c(Cl)cc21 ?
low

Continue with Fc1cccc(-[c+]2c3ccccc3oc3ccccc32)c1
intermediate

Also need Cc1ccc(-c2[nH]c(=O)n3c2-c2ccccc2C3=O)c(O)c1 , thanks.
high

And what about the compound Fc1nc(F)c(F)c(C#Cc2ccccc2C#Cc2c(F)c(F)nc(F)c2F)c1F ?
high

Let us now turn to CC1=[N+]2C(=C(c3c4ccccc4cc4ccccc34)c3ccc(C)n3[B-]2(F)F)C=C1
low

# iterate: CN1C(=O)/C(=C/c2ccncc2)N=C1/C=C/c1ccccc1
low

Repeat for the following compound: COC(=O)c1c(NC(C)(C)C)oc(-c2ccccc2)c1C(=O)OC
intermediate

Another compound to look at: CC(C)(C)c1ccc2c(c1)sc1[n+]2[B-](F)(F)n2c(c3cccc4cccc2c43)=C1C#N
high

* * *

Measurement Description: photoluminescence quantum yield (fraction); solvent given as SMILES
Condition Description: in CCCCO
Measurement Kind: photoluminescence quantum yield
Numbers only.

Below: 5 compounds and their reported photoluminescence quantum yield.
CN(C)c1ccc(/C=C/C=C/c2nc3ccccc3s2)cc1 ... 0.0044
C#CCNC1=C2C=CC=[N+]2[B-](F)(F)n2cccc21 ... 0.79
COCCOCCOCCOc1cc(C=O)c(OCCOCCOCCOC)cc1C=O ... 0.13
CCCCCCC(CCCCCC)N1C(=O)c2cccc3c(-c4ccccc4)ccc(c23)C1=O ... 0.95
CCN1C(=CC=Cc2n(CC)c3cc(Cl)c(Cl)cc3[n+]2CC)N(CC)c2cc(Cl)c(Cl)cc21 ... 0.042

Parameter requested: photoluminescence quantum yield. Apply to each item below.
1. COCCOCCOc1cc(C=O)c(OCCOCCOC)cc1C=O
2. Cc1cnc(NC(=O)C2=C(O)c3ccccc3S(=O)(=O)N2C)s1
3. CN1C(C(=O)Nc2ccccn2)=C([O-])c2sccc2S1(=O)=O
4. O=C1/C(=C/C=C/c2cc3c4c(c2)CCCN4CCC3)CC/C1=C\C=C\c1cc2c3c(c1)CCCN3CCC2
5. COCCOCCOCCOCCOc1ccc(OCCOCCOCCOCCOC)c(C=O)c1

1. 0.14
2. 0.0231
3. 0.0112
4. 0.061
5. 0.32
